Hello, the source for this data is ChEMBL document CHEMBL1773068, in case you need it.

tested on: Plasmodium falciparum; assay: Inhibition of Plasmodium falciparum GHA strain PDE assessed as inhibition of cGMP hydrolysis at 20 uM after 6 hrs by time resolved fluorescence resonance energy transfer-based assay
Activity calls are given as the source filed them. The calls are words filed in the database; no cut-off is given here.
recorded.metric: inhibition

INSERT INTO assay_data (structure_as_smiles, study_target, recorded_metric, result) VALUES
  ('O=C1[C@H]2Cc3c([nH]c4ccccc34)[C@@H](c3ccc4c(c3)OCO4)N2C(=O)CN1C1CCN(Cc2ccccc2)CC1', 'Plasmodium falciparum', 'inhibition', '60%'),
  ('OCCN(CCO)c1nc(N2CCCCC2)c2nc(N(CCO)CCO)nc(N3CCCCC3)c2n1', 'Plasmodium falciparum', 'inhibition', 'Active'),
  ('CCCOc1ccccc1-c1nc2[nH]nnc2c(=O)[nH]1', 'Plasmodium falciparum', 'inhibition', 'Active'),
  ('O=C1[C@H]2Cc3c([nH]c4ccccc34)[C@@H](c3ccc4c(c3)OCO4)N2C(=O)CN1[C@@H]1CCN(Cc2ccccc2)C1', 'Plasmodium falciparum', 'inhibition', '60%');
